assay: supercomplex reporter luminescence per Hoechst cell count – Hoechst nuclei count (AID 1645838); details: Cells, luminescence/Hoechst cell count ratio, measured here: cell number, Hoechst nuclei count, library stock concentration (final well concentration not given) 46 uM;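 further: control cybrid cells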
About 100 (5%) of roughly 2,000 compounds were called active. The full list was thinned out, with actives kept by preference. Residues, ends and D or L forms follow the SMILES beside them. *: point of attachment. Cbz = O=C(OCc1ccccc1)*
measured_quantity: cell count
Answer as a number with no unit attached.

Some compounds with known cell count results, for comparison:
* O=C(Nc1nnc(-c2ccco2)o1)c1cc(-c2ccccc2)nc2ccccc12 | 6600
* COC(=O)C(NC(=O)c1cc(-c2ccccc2)nc2ccccc12)c1ccccc1 (centres undefined) | 6610
* CC(=NNC(=O)c1cccc(S(=O)(=O)N2CCOCC2)c1)c1cc(Cl)ccc1O | 7290

For the next question, use this compound.
Exercise: Give the measured cell count of CC(C)CC(C=O)NC(=O)C(CC(C)C)NC(=O)C(CC(C)C)NC(=O)OCc1ccccc1 (stereo not drawn) (Cbz-Leu-Leu-Leu-aldehyde; configuration not given here) .
Key: 6590
